Entry source: ChEMBL document CHEMBL4732062

# measurement_protocol: Inhibition of arachidonic acid-induced platelet aggregation in human platelet-rich plasma incubated for 1 min followed by arachidonic acid addition
# Format: functional, cell-based
measured_property: pIC50
// pIC50 here means minus log10 of the molar concentration (mol/L)

Answered examples (3):
| smiles_string | pIC50 |
| --- | --- |
| COC(=O)c1ccc(-c2nn(Cc3ccccc3)c3cc(C)ccc23)o1 | 4.49 |
| CCOC(=O)c1ccc(-c2nn(Cc3ccccc3)c3ccccc23)cc1 | 3.73 |
| O=C(O)c1ccc(-c2nn(Cc3ccccc3)c3ccccc23)cc1 | 3.81 |

Give the measured pIC50 of `COC(=O)c1ccc(-c2nn(Cc3ccccc3)c3cc4c(cc23)OCO4)o1` .
4.03
